Reference source: paper PMC2288786

Molecular target: calmodulin (recombinant, from the expression construct pETCM with vertebrate CaM cDNA) ( (vertebrate CaM cDNA), UniProt P0DP23 2-149)
Assay: ITC; 1.0 mM MBP peptide injected into 0.10 mM CaM; 50 mM HEPES pH 7.5, 20 mM CaCl2; +35°C; fits: one site (peaks 2-7) and 4 sequential sites (peaks 2-20)
Settings: both partners purified
ASSAY METRIC: Kd (nM)

>  <BINDER>
HKGFKGVDAQGTLSKIFKL (myelin basic protein, human, 18.5-kDa isoform, residues 138-156; also called the peptide; myelin peptide; source: synthetic peptide, 95% purity; bought: Genemed Synthesis) [MBP peptide HKGFKGVDAQGTLSKIFKL, residues 138-156 of the human MBP 18.5 kDa isoform]

>  <ASSAY METRIC>
Kd

>  <REPORTED VALUE>
1900

$$$$
